Values were extracted from patent US12594264B2.

System: PFF induced HEK293 TREX α-syn A53T cells
PROTOCOL: Cytotoxicity by visual inspection of treated cells
Assay type: cell-based, human
TEST_CONDITIONS: 1 μM
METRIC: Cytotoxicity at the concentration tested

COMPOUND	OBSERVED_MEASUREMENT
COc1ccc2nc(-c3ccc(N4CC(OC5CCN(CCCCCOc6ccc7c(c6)C(=O)N(C6CCC(=O)NC6=O)C7=O)CC5)C4)cc3)sc2c1 (stereo not shown)	cytotoxicity
Cc1ncsc1-c1ccc([C@H](C)NC(=O)[C@@H]2C[C@@H](O)CN2C(=O)[C@@H](NC(=O)COCCOCCOCCOc2ccc3c(c2)Sc2cc([N+](=O)[O-])ccc2N3)C(C)(C)C)cc1	cytotoxicity
